# System: NK-YS (IL-2 2.5 ng/mL)
# Assay remarks: percent inhibition of viability; higher = more inhibition
# Assay conditions: 72 h; 100 nM
Measured quantity: percent inhibition of viability (%)
Provide only the numeric value, understood in %.

Here is how some compounds turned out for percent inhibition of viability.
[
  {
    "Compound": "Cc1ccc(C(=O)N(CCCN)[C@@H](c2oc3cc(Cl)ccc3c(=O)c2Cc2ccccc2)C(C)C)cc1 (max concentration tested 100 nM)",
    "Experimental system": "NK-YS (IL-2 2.5 ng/mL)",
    "percent inhibition of viability (%)": 80.5
  },
  {
    "Compound": "CON(C)C(=O)N1N=C(c2cc(F)ccc2F)S[C@@]1(CCCN)c1ccccc1 [ARRY-520] (max concentration tested 1000 nM)",
    "Experimental system": "NK-YS (IL-2 2.5 ng/mL)",
    "percent inhibition of viability (%)": 77
  },
  {
    "Compound": "Nc1cccc2c1C(=O)N(C1CCC(=O)NC1=O)C2=O (configuration not stated) [Pomalidomide] (max concentration tested 10000 nM)",
    "Experimental system": "NK-YS (IL-2 2.5 ng/mL)",
    "percent inhibition of viability (%)": -5.2
  },
  {
    "Compound": "CN(C)Cc1ccc(S(=O)(=O)n2ccc(/C=C/C(=O)NO)c2)cc1 [Resminostat] (max concentration tested 10000 nM)",
    "Experimental system": "NK-YS (IL-2 2.5 ng/mL)",
    "percent inhibition of viability (%)": 2.32
  },
  {
    "Compound": "O=C(Nc1c[nH]nc1-c1nc2ccc(CN3CCOCC3)cc2[nH]1)NC1CC1 [AT9283] (max concentration tested 1000 nM)",
    "Experimental system": "NK-YS (IL-2 2.5 ng/mL)",
    "percent inhibition of viability (%)": 57.1
  }
]

Data request: For the compound CNC(=O)c1ccc(C)c(-n2c(C)cc(OCc3ccc(F)cc3F)c(Br)c2=O)c1 (max concentration tested 1000 nM) , report percent inhibition of viability.
Data returned: 7.92

Data request: For the compound CCCCCOC(=O)Nc1nc(=O)n([C@@H]2O[C@H](C)[C@@H](O)[C@H]2O)cc1F [Capecitabine] (max concentration tested 10000 nM) , report percent inhibition of viability.
Data returned: -2.42

Data request: For the compound CO[C@H]1/C=C\C=C(/C)C(=O)NC2=CC(=O)C(NCCN(C)C)=C(C[C@@H](C)C[C@H](OC)[C@H](O)[C@@H](C)/C=C(\C)[C@@H]1OC(N)=O)C2=O [Alvespimycin] (max concentration tested 1000 nM) , report percent inhibition of viability.
Data returned: 96.8

###

# Test system: NK-YS (IL-2 2.5 ng/mL)
# Assay remarks: drug sensitivity score (DSS) (DSS units); higher = more sensitive; extreme values may be limits of the assay
# Assay conditions: 72 h
Measured quantity: drug sensitivity score
When you answer, write just the number.

[
  {
    "Molecule": "O=C(O)CNC(=O)c1c(O)c2ccccc2n(Cc2ccccc2)c1=O [IOX-2] (max concentration tested 50000 nM)",
    "Experimental system": "NK-YS (IL-2 2.5 ng/mL)",
    "drug sensitivity score": 0.91
  }
]

Data request: For the molecule Nc1ccn([C@@H]2O[C@H](CO)[C@@H](O)C2(F)F)c(=O)n1 [Gemcitabine] (max concentration tested 1000 nM) , report drug sensitivity score.
Data returned: 28.4

Data request: For the molecule C[C@@H]1COC(Nc2ccc3ncnc(Nc4ccc(OCc5nccs5)c(Cl)c4)c3c2)=N1 [Varlitinib] (max concentration tested 10000 nM) , report drug sensitivity score.
Data returned: 0.1

Data request: For the molecule CC(O)(CS(=O)(=O)c1ccc(F)cc1)C(=O)Nc1ccc(C#N)c(C(F)(F)F)c1 (centres undefined) [Bicalutamide] (max concentration tested 10000 nM) , report drug sensitivity score.
Data returned: 2.2

The origin of these recorded values is the supplement of paper PMC5908809.
